Values from patent US20240400708A1

Provide the recorded pKd for the entries that follow.
Target or system: feline FcRn complex (FcRn-α subunit and β-microglobulin), biotin labeled (feline)
Test: SPR, pH 7.4
Scale for pKd: -log10 of concentration given in mol/L; no unit attached.

Q: Entry under review: feline IgG1a S252M/S428M (antibody, part only; not given: Variable domains, not shown: another chain or arm of the molecule) constant: ASTTAPSVFPLAPSCGTTSGATVALACLVLGYFPEPVTVSWNSGALTSGVHTFPAVLQASGLYSLSSMVTVPSSRWLSDTFTCNVAHPPSNTKVDKTVRKTDHPPGPKPCDCPKCPPPEMLGGPSIFIFPPKPKDTLMISRTPEVTCLVVDLGPDDSDVQITWFVDNTQVYTAKTSPREEQFNSTYRVVSVLPILHQDWLKGKEFKCKVNSKSLPSPIERTISKAKGQPHEPQVYVLPPAQEELSRNKVSVTCLIKSFHPPDIAVEWEITGQPEPENNYRTTPPQLDSDGTYFVYSKLSVDRSHWQRGNTYTCSVMHEALHSHHTQKSLTQSPGK . Reported pKd?
Result: 7.71

Q: Entry under review: feline IgG1a G402R (antibody, part only; not given: Variable domains, not shown: another chain or arm of the molecule) constant: ASTTAPSVFPLAPSCGTTSGATVALACLVLGYFPEPVTVSWNSGALTSGVHTFPAVLQASGLYSLSSMVTVPSSRWLSDTFTCNVAHPPSNTKVDKTVRKTDHPPGPKPCDCPKCPPPEMLGGPSIFIFPPKPKDTLSISRTPEVTCLVVDLGPDDSDVQITWFVDNTQVYTAKTSPREEQFNSTYRVVSVLPILHQDWLKGKEFKCKVNSKSLPSPIERTISKAKGQPHEPQVYVLPPAQEELSRNKVSVTCLIKSFHPPDIAVEWEITGQPEPENNYRTTPPQLDSDRTYFVYSKLSVDRSHWQRGNTYTCSVSHEALHSHHTQKSLTQSPGK . Reported pKd?
Result: 5.92
